Target: T1, Formyl peptide receptor 1, C-terminally FLAG-tagged (UniProt P21462 1-350)
T1 construct: Formyl peptide receptor 1 (FPR1); Glycosylated in HEK293T (diffuse band that sharpens with PNGaseF); also called FPR1; FLAG-tagged FPR1; source: HEK293T, transiently transfected; on living cells, in lysate (sonication) or in a crude membrane fraction; not shown: FLAG, C-terminal, kept
T1 sequence (looked up): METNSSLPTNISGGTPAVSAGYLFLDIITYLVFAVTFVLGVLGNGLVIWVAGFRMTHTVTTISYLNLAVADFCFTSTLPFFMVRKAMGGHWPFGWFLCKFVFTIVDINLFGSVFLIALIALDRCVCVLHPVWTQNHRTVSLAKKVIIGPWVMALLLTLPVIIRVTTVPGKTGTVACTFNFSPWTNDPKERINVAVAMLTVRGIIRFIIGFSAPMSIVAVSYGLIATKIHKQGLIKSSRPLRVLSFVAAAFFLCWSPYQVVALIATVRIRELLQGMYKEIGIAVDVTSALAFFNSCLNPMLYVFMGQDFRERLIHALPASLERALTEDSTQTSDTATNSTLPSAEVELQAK
Assay: flow cytometry on cells; FPR1-transfected or mock-transfected HEK293T cells incubated with the fluorescent peptide (10 nM; probe-TAMRA titrated 0-200 nM); background of mock-transfected cells subtracted; 3 biological replicates
Conditions: one partner purified
Square brackets hold non-standard residues; d marks the D form. * marks the point of attachment. Abu(3-Me-diazirin-3-yl) = CC1(CC[C@H](N)C(=O)O)N=N1; Nle = CCCC[C@H](N)C(=O)O; For = O=C*
MEASURED METRIC: pKd
// returns pKd (minus log10 of molar concentration), number only

Req: For the binder For-[Abu(3-Me-diazirin-3-yl)]LF[Nle]YK(5(6)‑TAMRA)-OH [probe-TAMRA] , what pKd is on record?
Resp: 8.46
